experiment: Clearance in CD1 mouse at 5 mg/kg, iv by HPLC/MS analysis; type: ADME, organism-based; conditions: in vivo

compound: Cc1c(Oc2cnc(C(=O)N3CC(C)(O)C3)cn2)ccc2c1B(O)OC2
clearance, mL/min/kg: 4.07
//
compound: Cc1c(Oc2cnc(C(=O)NCCO)cn2)ccc2c1B(O)OC2
clearance, mL/min/kg: 2.65
//
compound: Cc1c(Oc2cnc(C(=O)N[C@@H](CO)CC(F)(F)F)cn2)ccc2c1B(O)OC2
clearance, mL/min/kg: 3.97
//
compound: CCC[C@H](CO)NC(=O)c1cnc(Oc2ccc3c(c2C)B(O)OC3)cn1
clearance, mL/min/kg: 4.05
//
compound: Cc1c(Oc2cnc(C(=O)NC(C)CO)cn2)ccc2c1B(O)OC2 (stereo not given)
clearance, mL/min/kg: 2.13

###

assay: Terminal half life in Sprague-Dawley rat at 5 mg/kg, iv by HPLC/MS analysis; type: ADME, organism-based; settings: in vivo, read-out: beta t1/2 (converted)
attribute.measured: half-life (h)

compound: Cc1c(Oc2cnc(C(=O)N3CC(C)(O)C3)cn2)ccc2c1B(O)OC2
measurement.units: h
measured.result: 4.6

###

tested on: Plasmodium falciparum; test: Antimalarial activity against Plasmodium falciparum 7G8 infected in human erythrocytes assessed as reduction in [3H]-hypoxanthine incorporation preincubated for 24 hrs followed by [3H]-hypoxanthine addition measured after 24 hrs by scintillation counting method; assay type: functional, cell-based
pIC50: −log10 of the molar value.

compound: Cc1c(Oc2cnc(C(=O)N3CC(C)(O)C3)cn2)ccc2c1B(O)OC2
experimental.system: Plasmodium falciparum
pIC50: 7.46

###

test: Cmax in CD1 mouse plasma at 5 mg/kg, po via gavage by HPLC/MS analysis; type: ADME, organism-based; set-up: dose 5 mg/kg, route oral
Friendly reminder: Cmax below 4000 ng/mL is YES, at or above is NO.

compound: Cc1c(Oc2cnc(C(=O)NCCO)cn2)ccc2c1B(O)OC2
class.name: NO

compound: Cc1c(Oc2cnc(C(=O)N[C@@H](CO)CC(F)(F)F)cn2)ccc2c1B(O)OC2
class.name: YES

compound: Cc1c(Oc2cnc(C(=O)NC(C)CO)cn2)ccc2c1B(O)OC2 (stereo not given)
class.name: YES

###

test system: Plasmodium falciparum; assay: Antimalarial activity against Plasmodium falciparum 3D7 0087/N9 infected in NOD/SCID IL2R gamma null mouse assessed as reduction in parasitemia administered once daily via oral gavage for 4 consecutive days measured on day 4 post infection; assay type: functional; settings: 3D7 0087/N9, po, 96 h
attribute.measured: ED90

compound: Cc1c(Oc2cnc(C(=O)N3CC(O)(C(F)(F)F)C3)cn2)ccc2c1B(O)OC2
measured.result: < 5 mg/kg
//
compound: Cc1c(Oc2cnc(C(=O)N3CC(O)(C4CC4)C3)cn2)ccc2c1B(O)OC2
measured.result: < 5 mg/kg
//
compound: Cc1c(Oc2cnc(C(=O)N3CC(O)(C(C)C)C3)cn2)ccc2c1B(O)OC2
measured.result: < 5 mg/kg

Entry source: ChEMBL document CHEMBL4038305
